Biological target: Integrin alpha-V/beta-3 (Homo sapiens)
Assay: Inhibition of HUVEC adhesion to fibronectin-coated plates
pIC50: −log10 of the molar value.
PROPERTY_NAME: pIC50

>>> result("CCN(CC(=O)N[C@@H](CC(=O)O)C(=O)N[C@@H](CC1CCCCC1)C(N)=O)C(=O)CCCC1CCNCC1")
"< 2.62"
>>> result("CCN(CC(=O)N[C@@H](CC(=O)O)C(=O)N[C@@H](CC1CCCCC1)C(=O)O)C(=O)CCCC1CCNCC1")
"< 2.76"

====

Molecular target: Integrin alpha-IIb/beta-3 (Homo sapiens, UniProt P05106+P08514)
Sequence (P05106 27-788 limits assumed): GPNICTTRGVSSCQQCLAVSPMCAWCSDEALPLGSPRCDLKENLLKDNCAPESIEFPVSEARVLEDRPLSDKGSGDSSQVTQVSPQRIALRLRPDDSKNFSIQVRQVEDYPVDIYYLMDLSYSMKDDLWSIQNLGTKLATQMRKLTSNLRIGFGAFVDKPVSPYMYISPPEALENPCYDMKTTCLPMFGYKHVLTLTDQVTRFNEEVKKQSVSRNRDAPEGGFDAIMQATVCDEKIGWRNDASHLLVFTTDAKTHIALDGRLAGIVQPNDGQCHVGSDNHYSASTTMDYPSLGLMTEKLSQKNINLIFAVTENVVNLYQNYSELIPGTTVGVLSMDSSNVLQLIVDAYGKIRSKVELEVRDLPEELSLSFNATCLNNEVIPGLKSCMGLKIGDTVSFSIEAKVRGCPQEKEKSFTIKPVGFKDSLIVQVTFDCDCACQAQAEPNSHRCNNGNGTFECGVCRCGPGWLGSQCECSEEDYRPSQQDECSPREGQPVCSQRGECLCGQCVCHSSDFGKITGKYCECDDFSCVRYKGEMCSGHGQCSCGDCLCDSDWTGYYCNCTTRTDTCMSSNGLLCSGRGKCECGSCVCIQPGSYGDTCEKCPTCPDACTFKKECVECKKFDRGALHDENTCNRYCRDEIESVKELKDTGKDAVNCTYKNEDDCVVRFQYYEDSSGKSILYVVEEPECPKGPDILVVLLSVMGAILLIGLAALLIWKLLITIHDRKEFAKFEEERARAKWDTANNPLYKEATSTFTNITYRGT
Sequence (P08514 32-887 limits assumed): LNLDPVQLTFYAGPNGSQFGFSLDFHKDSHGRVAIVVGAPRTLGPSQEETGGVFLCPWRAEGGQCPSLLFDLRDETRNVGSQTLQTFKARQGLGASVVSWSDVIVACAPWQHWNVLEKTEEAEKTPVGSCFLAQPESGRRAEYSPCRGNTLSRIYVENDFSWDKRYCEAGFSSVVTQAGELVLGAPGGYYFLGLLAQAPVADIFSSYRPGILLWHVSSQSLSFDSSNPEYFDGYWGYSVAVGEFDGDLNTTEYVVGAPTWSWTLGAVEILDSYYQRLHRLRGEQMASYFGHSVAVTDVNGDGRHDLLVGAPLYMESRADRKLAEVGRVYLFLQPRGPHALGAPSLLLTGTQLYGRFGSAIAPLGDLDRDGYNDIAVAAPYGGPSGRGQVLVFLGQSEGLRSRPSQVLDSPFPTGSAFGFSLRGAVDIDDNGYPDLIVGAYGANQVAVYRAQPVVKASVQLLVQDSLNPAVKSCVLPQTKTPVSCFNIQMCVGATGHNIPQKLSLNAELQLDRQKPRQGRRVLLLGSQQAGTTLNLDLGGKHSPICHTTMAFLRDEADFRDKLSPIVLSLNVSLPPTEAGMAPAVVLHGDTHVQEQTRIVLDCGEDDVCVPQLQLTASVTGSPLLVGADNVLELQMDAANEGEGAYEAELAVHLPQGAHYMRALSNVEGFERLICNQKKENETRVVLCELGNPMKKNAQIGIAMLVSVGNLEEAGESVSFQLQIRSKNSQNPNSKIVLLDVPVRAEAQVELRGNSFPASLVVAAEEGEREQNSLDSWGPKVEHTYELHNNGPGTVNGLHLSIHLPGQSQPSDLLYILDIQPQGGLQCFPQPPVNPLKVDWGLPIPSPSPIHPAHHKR
Sequence (P08514 891-1039 limits assumed): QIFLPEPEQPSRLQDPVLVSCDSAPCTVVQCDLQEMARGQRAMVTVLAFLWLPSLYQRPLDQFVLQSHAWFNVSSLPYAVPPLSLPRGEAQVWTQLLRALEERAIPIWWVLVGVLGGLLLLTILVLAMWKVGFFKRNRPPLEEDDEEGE
Assay: Inhibition of radiolabeled fibrinogen binding to activated human platelets
Format: functional
Please use TRUE for IC50 under 20 nM and FALSE for everything else, ties included.

>>> group("CCCC[C@H](NC(=O)[C@H](CC(=O)O)NC(=O)CN(CC)C(=O)CCCC1CCNCC1)C(=O)O")
"TRUE"
>>> group("CCN(CC(=O)N[C@@H](CC(=O)O)C(=O)N[C@H](C(=O)O)C(C)C)C(=O)CCCC1CCNCC1")
"TRUE"
>>> group("CCOC(=O)[C@H](CC1CCCCC1)NC(=O)[C@H](CC(=O)O)NC(=O)CN(CC)C(=O)CCCC1CCNCC1")
"TRUE"
>>> group("CCN(CC(=O)N[C@@H](CC(=O)O)C(=O)N[C@@H](CC1CCCC2CCCCC21)C(=O)O)C(=O)CCCC1CCNCC1 (stereo partly specified)")
"TRUE"
>>> group("CCN(CC(=O)N[C@@H](CC(=O)O)C(=O)N[C@@H](CC(C)(C)C)C(=O)O)C(=O)CCCC1CCNCC1")
"FALSE"
>>> group("CCN(CC(=O)N[C@@H](CC(=O)O)C(=O)N[C@@H](C(=O)O)C(C)C)C(=O)CCCC1CCNCC1")
"FALSE"

Source listed as ChEMBL document CHEMBL1131578.
